Test: Pharmacokinetics of PLM60 and FM in Kunming mice (plasma level of mitoxantrone)
Assay type: in vivo
Conditions: male, Kunming, mouse, iv, 2 mg/kg, tail vein, read-out: MRT 0-48
MEASUREMENT_TYPE: MRT last (min)
// units = min; emit number, no label

Data request, read-out MRT last, for O=C1c2c(O)ccc(O)c2C(=O)c2c(NCCNCCO)ccc(NCCNCCO)c21 [FM, mitoxantrone] 31

====

Assay: Tissue distribution in S-180 tumor-bearing mice
Type: in vivo
Settings: male, Kunming, mouse, intestine, intravenous; 4 mg/kg i.v., t 1 h; read-out: concentration of mitoxantrone in Intestine
MEASUREMENT_TYPE: concentration at 1 h (ng/g)
Quick reminder: number only, in ng/g, skip the unit.

What value of concentration at 1 h has been recorded for this entry: O=C1c2c(O)ccc(O)c2C(=O)c2c(NCCNCCO)ccc(NCCNCCO)c21 [FM, mitoxantrone] 1530
